Origin of the recorded values: ChEMBL document CHEMBL1145247

Target protein (sequence): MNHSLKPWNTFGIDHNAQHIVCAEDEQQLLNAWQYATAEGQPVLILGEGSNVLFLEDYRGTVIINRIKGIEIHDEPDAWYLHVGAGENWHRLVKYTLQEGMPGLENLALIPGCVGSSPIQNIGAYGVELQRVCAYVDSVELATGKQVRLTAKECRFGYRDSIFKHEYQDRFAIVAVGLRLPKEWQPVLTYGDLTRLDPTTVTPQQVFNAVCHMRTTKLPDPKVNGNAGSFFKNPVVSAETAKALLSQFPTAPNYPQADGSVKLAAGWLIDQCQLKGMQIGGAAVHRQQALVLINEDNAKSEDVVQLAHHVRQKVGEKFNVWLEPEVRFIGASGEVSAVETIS
pIC50: −log10 of the molar value.
Experimental endpoint: pIC50

Item: CCN(CC)CCC1C(=O)N(c2ccc(Cl)cc2)N(c2ccc(Cl)cc2)C1=O | pIC50: < 4.30

Item: CC1(CCCCCCc2ccccc2)C(=O)N(c2ccc(Cl)cc2)N(c2ccc(Cl)cc2)C1=O | pIC50: < 4.30

Item: O=C1C(Cc2ccccc2Cl)C(=O)N(c2ccc(Cl)cc2)N1c1ccc(Cl)cc1 | pIC50: < 4.30
